# targetDesc: MOR (Homo sapiens (Human), UniProt P35372)
# Sequence (P35372 whole entry): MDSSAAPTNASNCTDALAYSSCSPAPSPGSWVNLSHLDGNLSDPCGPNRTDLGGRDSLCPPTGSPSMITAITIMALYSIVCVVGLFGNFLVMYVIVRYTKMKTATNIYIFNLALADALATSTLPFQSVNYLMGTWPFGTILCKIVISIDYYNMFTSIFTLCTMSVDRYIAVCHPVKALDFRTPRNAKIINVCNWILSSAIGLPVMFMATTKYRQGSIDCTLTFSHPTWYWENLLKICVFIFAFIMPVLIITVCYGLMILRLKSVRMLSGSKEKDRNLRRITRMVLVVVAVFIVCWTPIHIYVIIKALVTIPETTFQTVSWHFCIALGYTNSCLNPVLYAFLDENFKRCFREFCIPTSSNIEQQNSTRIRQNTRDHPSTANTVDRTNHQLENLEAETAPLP
# assayExplanation: Receptor binding, [3H]diprenorphine
pKi: −log10 of the molar value.
Quick reference for pKi among some compounds

compound | pKi
COc1ccc(CCNC(=O)NC[C@H](Cc2ccc(O)cc2)N(C)C)cc1 [DD201] | 6.48
CN(CCO)[C@H](CNC(=O)NCCc1ccccc1)Cc1ccc(O)cc1 [DD186] | 6.01
COc1cccc(CCNC(=O)NC[C@H](Cc2ccc(O)cc2)N(C)C)c1 [DD200] | 6.96
C[C@@H](Cc1ccsc1)NC(=O)NC[C@H](Cc1ccc(O)cc1)N(C)Cc1ccccc1 [DD187] | 6.66

====

# targetDesc: human μOR β-arrestin2 recruitment + GRK2 (Homo sapiens (Human), UniProt P35372)
# assayExplanation: β-Arrestin2 recruitment with GRK2 co-expression (BRET)
# Type: cell-based
# settings: GRK2 co-expressed
readoutType: Arrestin + GRK2 pEC50

molecule | readoutType | reportedMeasurement
C[C@@H](Cc1csc2ccccc12)NC(=O)NC[C@H](Cc1ccc(O)cc1)N(C)C [DD 63L-LB] | Arrestin + GRK2 pEC50 | 7.086
C[C@@H](Cc1ccccc1)NC(=O)NC[C@H](Cc1ccc(O)cc1)N(C)C [DD 61L-B] | Arrestin + GRK2 pEC50 | 6.556
CN(C)[C@H](CNC(=O)NCCc1ccsc1)Cc1ccc(O)cc1 [DD 16] | Arrestin + GRK2 pEC50 | 6.843

====

# targetDesc: human μOR β-arrestin2 recruitment + GRK2 (Homo sapiens (Human), UniProt P35372)
# assayExplanation: β-Arrestin2 recruitment with GRK2 co-expression (BRET)
# Format: cell-based
# settings: GRK2 co-expressed
Quick list: Arrestin + GRK2 pEC50 per entry.

compound | Arrestin + GRK2 pEC50
C[C@@H](Cc1ccsc1)NC(=O)NC[C@H](Cc1ccc(O)c(CO)c1)N(C)C | 6.671
CN(C)[C@H](CNC(=O)NC(C)(C)Cc1ccccc1)Cc1ccc(O)cc1 [DD 33L] | 6.874
C[C@@H](Cc1ccsc1)NC(=O)NC[C@H](Cc1cccc(O)c1)N(C)C [DD 47LS] | 6.676
CN(CCc1ccccc1)C(=O)NC[C@H](Cc1ccc(O)cc1)N(C)C | 5.824
CN(C)[C@H](CNC(=O)NCCc1ccccc1)Cc1ccc(O)cc1 | 6.841
CN(C)[C@H](CNC(=S)NCCc1ccsc1)Cc1ccc(O)cc1 | 7.173
CN(C[C@H](Cc1ccc(O)cc1)N(C)C)C(=O)NCCc1ccccc1 | 5.826
CN(C)[C@H](CNC(=O)NC(C)(C)Cc1ccsc1)Cc1ccc(O)cc1 [DD 32L] | 7.306
C[C@H](NC(=O)NC[C@H](Cc1ccc(O)cc1)N(C)C)c1ccccc1 [DD 53LS] | 7.059

====

# targetDesc: μOR (Homo sapiens (Human), UniProt P35372)
# assayExplanation: cell-based
# Format: cell-based

compound | Gi/o pEC50
C[C@@H](Cc1ccccc1)NC(=O)NC[C@H](Cc1ccc(O)cc1)N(C)C [DD 61L-B] | 7.45
CN(C)[C@H](CNC(=O)NCCc1ccsc1)Cc1ccc(O)cc1 | 8.122
C[C@@H](Cc1ccsc1)NC(=O)NC[C@H](Cc1ccc(O)c(CO)c1)N(C)C | 8.1
C[C@H](NC(=O)NC[C@H](Cc1ccc(O)cc1)N(C)C)c1ccccc1 [DD 53LS] | 8.512

====

# targetDesc: μOR (Homo sapiens (Human))
# assayExplanation: cell-based
# Type: cell-based
Give true when the value for Gi/o pEC50 is at least 8. Give false when it is less.

molecule | labelValue
CN(C[C@H](Cc1ccc(O)cc1)N(C)C)C(=O)NCCc1ccccc1 | false
CN(CCc1ccccc1)C(=O)NC[C@H](Cc1ccc(O)cc1)N(C)C | false
CN(C)[C@H](CNC(=O)NC(C)(C)Cc1ccccc1)Cc1ccc(O)cc1 [DD 33L] | false
CN(C)[C@H](CNC(=O)NC(C)(C)Cc1ccsc1)Cc1ccc(O)cc1 [DD 32L] | false
CN(C)[C@H](CNC(=O)NCCc1ccccc1)Cc1ccc(O)cc1 | true
C[C@@H](Cc1csc2ccccc12)NC(=O)NC[C@H](Cc1ccc(O)cc1)N(C)C [DD 63L-LB] | true
CN(CC1CC1)[C@H](CNC(=O)NCCc1ccccc1)Cc1ccc(O)cc1 | false

====

# targetDesc: MOR (Homo sapiens (Human))
# assayExplanation: Receptor binding, [3H]diprenorphine
# settings: hMOR [3H]dyprenorphine Ki

molecule | Ki [nM]
CC(Cc1csc2ccccc12)NC(=O)NC[C@H](Cc1ccc(O)cc1)N(C)C (mixture of isomers) [DD 63L-RS] | 16

====

# targetDesc: humanDOR (Homo sapiens (Human), UniProt P41143)
# Sequence (P41143 whole entry): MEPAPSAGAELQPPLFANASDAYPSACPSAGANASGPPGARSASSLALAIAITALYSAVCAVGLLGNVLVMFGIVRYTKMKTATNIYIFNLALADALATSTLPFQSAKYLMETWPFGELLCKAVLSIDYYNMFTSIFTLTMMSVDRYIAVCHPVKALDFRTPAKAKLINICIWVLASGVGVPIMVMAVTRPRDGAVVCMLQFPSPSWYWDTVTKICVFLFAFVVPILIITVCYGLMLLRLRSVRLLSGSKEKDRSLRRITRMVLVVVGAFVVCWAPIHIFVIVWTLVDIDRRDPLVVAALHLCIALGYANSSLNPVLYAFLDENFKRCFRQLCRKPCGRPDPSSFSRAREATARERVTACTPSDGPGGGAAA
# assayExplanation: Receptor binding, [3H]diprenorphine
# settings: read-out: binding affinity Ki [nM] hDOR

compound | targetDesc | unit | Ki
CC(Cc1csc2ccccc12)NC(=O)NC[C@H](Cc1ccc(O)cc1)N(C)C (mixture of isomers) [DD 63L-RS] | humanDOR (Homo sapiens (Human), UniProt P41143) | nM | 44
C[C@H](Cc1ccsc1)NC(=O)NC[C@H](Cc1ccc(O)cc1)N(C)C (stereo in doubt) [BD 122LR] | humanDOR (Homo sapiens (Human), UniProt P41143) | nM | 88
C[C@H](Cc1ccsc1)NC(=O)NC[C@H](Cc1ccccc1)N(C)C (stereo in doubt) [BD 127LR] | humanDOR (Homo sapiens (Human), UniProt P41143) | nM | 1800

====

# targetDesc: humanDOR (Homo sapiens (Human), UniProt P41143)
# assayExplanation: Receptor binding, [3H]diprenorphine
// classify: if (Ki < 500 nM) t else f

molecule | targetDesc | labelValue
C[C@H](Cc1ccsc1)NC(=O)NC[C@H](Cc1ccc(O)cc1)N(C)C (stereo in doubt) [BD 122LR] | humanDOR (Homo sapiens (Human), UniProt P41143) | t
C[C@@H](Cc1ccsc1)NC(=O)NC[C@H](Cc1ccc(O)cc1)N(C)Cc1ccccc1 [DD187] | humanDOR (Homo sapiens (Human), UniProt P41143) | f
CN(C)[C@H](CNC(=O)NCCc1cn(CCOCCOCCN=[N+]=[N-])nn1)Cc1ccc(O)cc1 [DD 161] | humanDOR (Homo sapiens (Human), UniProt P41143) | f
C[C@@H](Cc1ccsc1)NC(=O)NC[C@H](Cc1ccc(O)cc1)N(C)C [PZM21] | humanDOR (Homo sapiens (Human), UniProt P41143) | t
CN(C)[C@H](CNC(=O)NCCc1ccc(F)cc1)Cc1ccc(O)cc1 [DDLM-15] | humanDOR (Homo sapiens (Human), UniProt P41143) | t
CN(C)[C@H](CNC(=O)NCCc1cccc(F)c1)Cc1ccc(O)cc1 [DDLM-10] | humanDOR (Homo sapiens (Human), UniProt P41143) | t
